The measurements presented in this section are drawn from patent EP0293532A1.

# System: E.Coli DC RTEM
Counter-ions that a name gives are not always drawn.
result-type: MIC (µg/mL)
Give your result in µg/mL as a bare value.

Please report the recorded MIC for CC1(C)S[C@H]2N(C(=O)[C@@]2(NC=O)NC(=O)[C@H](NC(=O)N2CCN(Cc3cc(O)c(O)cn3)C(=O)C2=O)c2ccccc2)[C@H]1C(=O)O .
0.06

Please report the recorded MIC for CCN1CCN(C(=O)N[C@@H](C(=O)N[C@]2(NC=O)C(=O)N3[C@@H](C(=O)O)C(C)(C)S[C@@H]32)c2ccccc2)C(=O)C1=O [Compound A, sodium salt, reference compound] .
0.12

Please report the recorded MIC for CC1(C)S[C@@H]2[C@H](NC(=O)[C@H](NC(=O)N3CCN(Cc4ccc(O)c(O)c4)C(=O)C3=O)c3ccccc3)C(=O)N2[C@H]1C(=O)O .
4
